Measured values drawn from ChEMBL document CHEMBL5143671 for this set.

# protocol-text: physchem;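 further: determined using a high-throughput solubility method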
# setup-conditions: phosphate buffer

structure-smiles-string: O=C(c1ccc2cc(Oc3ccc(C(F)F)cn3)ccc2n1)N1CCNCC1
solubility [µM]: 150
--
structure-smiles-string: O=C(c1ccc2cc(Oc3cc(C(F)(F)F)ccn3)ccc2n1)N1CCNCC1
solubility [µM]: 200
--
structure-smiles-string: CC(=O)c1ccc(Oc2ccc3nc(C(=O)N4CCNCC4)ccc3c2)cc1
solubility [µM]: 145
--
structure-smiles-string: O=C(c1ccc2cc(Oc3ccc(OC(F)(F)F)cn3)ccc2n1)N1CCNCC1
solubility [µM]: 150
--
structure-smiles-string: O=C(c1ccc2cc(Oc3ccc(F)cn3)ccc2n1)N1CCNCC1
solubility [µM]: 150
--
structure-smiles-string: O=C(COc1ccc2cc(Oc3ccc(C(F)(F)F)cn3)ccc2n1)N1CCCCC1
solubility [µM]: 48
--
structure-smiles-string: CN1CCN(C(=O)COc2ccc3cc(Oc4ccccn4)ccc3n2)CC1
solubility [µM]: 176
--
structure-smiles-string: O=C(c1ccc2cc(Oc3ccc(C(F)(F)F)cn3)ccc2n1)N1CC(F)(F)C1
solubility [µM]: 5
--
structure-smiles-string: O=C(c1ccc2cc(Oc3ncc(C(F)(F)F)cn3)ccc2n1)N1CCNCC1
solubility [µM]: 138
--
structure-smiles-string: O=C(c1ccc2cc(Oc3ccc(C(F)(F)F)cc3)ccc2n1)N1CCNCC1
solubility [µM]: 140
--
structure-smiles-string: O=C(N[C@H]1C[C@@H](O)C1)c1ccc2cc(Oc3ccc(C(F)(F)F)cn3)ccc2n1
solubility [µM]: 10
--
structure-smiles-string: CS(=O)(=O)C1CN(C(=O)c2ccc3cc(Oc4ccc(C(F)(F)F)cn4)ccc3n2)C1
solubility [µM]: 18
--
structure-smiles-string: N#Cc1ccc(Oc2ccc3nc(C(=O)N4CCNCC4)ccc3c2)cc1
solubility [µM]: 194
--
structure-smiles-string: CS(=O)(=O)CCNC(=O)c1ccc2cc(Oc3ccc(C(F)(F)F)cn3)ccc2n1
solubility [µM]: 29
--
structure-smiles-string: O=C(N[C@@H]1CCOC1=O)c1ccc2cc(Oc3ccc(C(F)(F)F)cn3)ccc2n1
solubility [µM]: 5
--
structure-smiles-string: O=C(NC1CC(F)(F)C1)c1ccc2cc(Oc3ccc(C(F)(F)F)cn3)ccc2n1
solubility [µM]: 5
--
structure-smiles-string: O=C(c1ccc2cc(Oc3ccc(C(F)(F)F)cn3)ccc2n1)N1CC[C@H](F)C1
solubility [µM]: 55
--
structure-smiles-string: CN1CCN(C(=O)COc2ccc3cc(Oc4ccc(C(F)(F)F)cn4)ccc3n2)CC1
solubility [µM]: 200
--
structure-smiles-string: O=C1CN(C(=O)COc2ccc3cc(Oc4ccc(C(F)(F)F)cn4)ccc3n2)CCN1
solubility [µM]: 23
--
structure-smiles-string: O=C(COc1ccc2cc(Oc3ccccn3)ccc2n1)N1CCNCC1
solubility [µM]: 200
--
structure-smiles-string: O=C(c1ccc2cc(Oc3ccc(S(=O)(=O)C(F)(F)F)cc3)ccc2n1)N1CCNCC1
solubility [µM]: 150
